experiment: Liver S9 fraction stability, dog; assay type: in vitro ADME; details: 1.0 mg/ml S9 protein, 2 μM, 37° C.
Decision: Liver S9 Fraction Stability % remaining at 60 minutes, Dog beneath 20% gives t; Liver S9 Fraction Stability % remaining at 60 minutes, Dog meeting or exceeding 20% gives f.

molecule | category
C=C1CC[C@@]2(O)C3Cc4ccc(OC(=O)CCCCCCC/C=C/CCCCCCCC)c5c4[C@@]2(CCN3CC2CC2)[C@H]1O5 | f
C=C1CC[C@@]2(O)C3Cc4ccc(OCOC(=O)OCCCCCCCCCCCC)c5c4[C@@]2(CCN3CC2CC2)[C@H]1O5 | t
CCCCCCCCCCCC(=O)OCN1C(=O)CCc2ccc(OCCCCN3CCN(c4cccc(Cl)c4Cl)CC3)cc21 [Aripiprazole lauroxil, reference compound] | f
CCCCCCCCCCCCCCCC(=O)OC1CCCn2c1nc(C)c(CCN1CCC(c3noc4cc(F)ccc34)CC1)c2=O (centres unmarked) [Paliperidone palmitate, reference compound] | f
C=C1CC[C@@]2(O)C3Cc4ccc(OC(=O)OCCCCCCCCCCCC)c5c4[C@@]2(CCN3CC2CC2)[C@H]1O5 | t
